Biological target: T1, HCV Core1-169 (hepatitis C virus (HCV-1), UniProt P26664 1-169)
T1 sequence: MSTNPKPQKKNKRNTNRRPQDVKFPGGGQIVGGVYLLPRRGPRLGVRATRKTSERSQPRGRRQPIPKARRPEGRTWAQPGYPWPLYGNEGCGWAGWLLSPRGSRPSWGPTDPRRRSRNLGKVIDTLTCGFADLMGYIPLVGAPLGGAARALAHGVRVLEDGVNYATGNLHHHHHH
Assay: SPR sandwich, capture mAb C11-7
REPORTED_METRIC: expected percent binding (%)
Kindly provide the numeric value in % only, without the unit symbol.

Asked: expected percent binding for HCV 208A-830 (antibody, V domains shown) VH: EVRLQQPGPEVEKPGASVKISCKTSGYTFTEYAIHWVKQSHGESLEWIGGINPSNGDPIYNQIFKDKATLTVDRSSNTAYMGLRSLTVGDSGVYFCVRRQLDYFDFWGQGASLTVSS VL: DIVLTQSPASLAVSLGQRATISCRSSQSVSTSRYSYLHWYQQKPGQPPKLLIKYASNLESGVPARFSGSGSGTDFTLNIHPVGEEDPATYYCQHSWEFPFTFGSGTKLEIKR ?
Given back: 14.7

Asked: expected percent binding for HCV 208A-159 (antibody, V domains shown) VH: QLQQSGPAQVKPGASVMISCKTSGYTFTENAMHWVKQSHGKSLEWIGGVNPNNGDTIFNQKFKDKAALTVDKSSSTAFMELRSLTSEESTVYYCVRRELDFFDYWGQGTSVTVSS VL: DIVLTQSPASLAVSLGQRATISCRASQSVSTSRYSYVHWYQQKPGQPPKLLIKYAANLESGVPARFSGSGSGTDFTLNIHPVAEEDAAAYYCQHSWEFPFTFGSGTKLEIKR ?
Given back: 7

Asked: expected percent binding for HCV 208A-605 (antibody, V domains shown) VH: EVQLQQSGPELEKPGASVKISCKTSGYTFTEYAIHWVKQSHGMSLEWIGGINPSNGNAIYNQIFKDKATLTVDRSSSTAYMGLRSLTFGDSGVYFCVRRQLDFFDYWGQGASLTVSS VL: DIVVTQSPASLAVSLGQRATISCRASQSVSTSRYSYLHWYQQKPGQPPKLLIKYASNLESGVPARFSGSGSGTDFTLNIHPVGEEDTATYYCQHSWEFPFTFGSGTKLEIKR ?
Given back: 19.3
